method: chemical genetic growth profiling, strain panel (AID 1159580);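 further: tested at 20 µM; growth read once vehicle control cultures reached saturation at 30 °C; lower values mean less growth of the strain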
recorded_conditions: S. cerevisiae deletion strains, growth OD, locus YOR316C, strain cot1
In all, about 5,500 compounds went through this assay and about 2,000 (36%) were called active. Not shown: some 18% with an inconclusive outcome. No stated cut-off is given here; in the data, active means normalized growth mostly below about 0.91 (no sharp cut-off); inconclusive means no clear call, values can overlap the other calls; inactive means mostly above about 0.92. This is one part of the list.
Field 'call' accepts active, inactive

Query: Each compound tested received a call. Report the one for O=C(O)CN1C(=O)c2cccc3cccc(c23)C1=O .
Result: inactive

Query: Dear colleague, could you share the recorded outcome for Cc1cc(-c2ccccc2)nnc1NCCN1CCOCC1 when you have a moment?
Result: inactive

Query: Outcome? O=C(C1CCCCC1)N1CC(=O)N2CCc3ccccc3C2C1 (centres undefined)
Result: inactive

Query: Field: outcome | Entry: COC(=O)C(C)c1ccc(C(=O)c2cccs2)cc1 (centres undefined)
Result: inactive

Query: What outcome does the record of this test show for NC(=O)c1cccc(N)c1 ?
Result: inactive

Query: Record request — test call for CC(C)COCC(CN(Cc1ccccc1)c1ccccc1)N1CCCC1 (centres undefined)
Result: inactive

Query: In this assay, the call recorded for CC(=O)OC1CCC2(C)C(=CC=C3C2CCC2(C)C3CCC2C(C)/C=C/C(C)C(C)C)C1(C)C (centres undefined) was what?
Result: inactive

Query: Hi team, can someone confirm the assay call for COc1ccc2c(c1)CCC(c1ccccc1)=C2c1ccc(OCCN2CCCC2)cc1 ?
Result: active

Query: Hey, what did the test say about NC[C@@H]1CC[C@@H](N)[C@@H](O[C@H]2[C@H](O)[C@@H](O[C@H]3O[C@H](CO)[C@@H](O)[C@H](N)[C@H]3O)[C@H](N)C[C@@H]2N)O1 ?
Result: inactive

Query: Tell me the assay call for CC(C(=O)O)c1ccc(C(=O)c2cccs2)cc1 (centres undefined) please.
Result: inactive

Query: What was the test verdict on Nc1nc2ncc(=O)[nH]c2c(=O)[nH]1 ?
Result: inactive

Query: Test call, this compound: O=C(O)CN(CC(=O)O)Cc1cc2c(-c3ccccc3C(=O)O)c3cc(CN(CC(=O)O)CC(=O)O)c(=O)cc-3oc2cc1O
Result: inactive

Query: What call does the record list for COC(=O)C[C@H]1C(C)(C)C(=O)[C@@H]2CC3=C(CC[C@]4(C)C3=CC(=O)O[C@H]4c3ccoc3)[C@@]1(C)C2=O ?
Result: inactive

Query: Short answer needed: outcome of this test for CC(C)C(C)/C=C/C(C)[C@H]1CCC2C3=CCC4CC(=O)CC[C@]4(C)C3CC[C@@]21C (some centres undefined) ?
Result: inactive
